System: INS1
Assay: Cytoprotective activity in endoplasmic reticulum stressed rat INS-1 cells assessed as rescue from tunicamycin-mediated reduction in cell viability at 5 uM after 72 hrs by CellTiter-Glo assay relative to control
Format: functional
assayReadout: %max (%)
Record the value in %, omitting the unit from your answer.

{"smilesStr": "CCc1ccc(-n2nnc(C(=O)Nc3ccc(OC)cc3)c2C)cc1", "studySystem": "INS1", "readingUnit": "%", "%max": 21}
{"smilesStr": "Cc1c(C(=O)Nc2cccc(F)c2)nnn1-c1ccc(C(C)C)cc1", "studySystem": "INS1", "readingUnit": "%", "%max": 33}
{"smilesStr": "CCc1ccc(-n2nnc(C(=O)Nc3cccc(C)c3)c2C)cc1", "studySystem": "INS1", "readingUnit": "%", "%max": 72}
{"smilesStr": "CCc1ccc(-n2nnc(C(=O)Nc3ccccc3Cl)c2C)cc1", "studySystem": "INS1", "readingUnit": "%", "%max": 19}

// moving on: another record for %max
Lookup: Requested read-out: %max. Entry: `Cc1c(C(=O)Nc2ccccc2F)nnn1-c1ccc(C(C)C)cc1`
Found: 29

These measurements were taken from ChEMBL document CHEMBL3797120.
